Tested System: HEK-293 cells expressing human recombinant adenosine A2A receptor (Homo sapiens (Human))
Assay Summary: cAMP assay, Assay 2 (Eu-cAMP tracer / ULight-anti-cAMP)
Assay type: cell-based
Particulars: Assay 2
Measured IC50 values are reported for all entries that follow.

Solved entries (count: 2):
Cc1n[nH]c(C)c1-c1nc(N)cnc1-c1ccc2ncccc2c1; > 10 µM
Cn1ccc(-c2nc(N)cnc2-c2ccc3[nH]c(=O)ccc3c2)n1; > 10 µM

Now consider a different compound.
Q: Return IC50 measured with HEK-293 cells expressing human recombinant adenosine A2A receptor (Homo sapiens (Human)) given this compound: Nc1cnc(-c2ccc3ncccc3c2)c(N2CCCC2=O)n1
Result: > 10 µM

* * *

Measured inhibition at 0.1 µM values are reported for all entries that follow.
Tested System: HEK-293 cells expressing human recombinant adenosine A2A receptor (Homo sapiens (Human), UniProt P29274)
Sequence (P29274 whole entry): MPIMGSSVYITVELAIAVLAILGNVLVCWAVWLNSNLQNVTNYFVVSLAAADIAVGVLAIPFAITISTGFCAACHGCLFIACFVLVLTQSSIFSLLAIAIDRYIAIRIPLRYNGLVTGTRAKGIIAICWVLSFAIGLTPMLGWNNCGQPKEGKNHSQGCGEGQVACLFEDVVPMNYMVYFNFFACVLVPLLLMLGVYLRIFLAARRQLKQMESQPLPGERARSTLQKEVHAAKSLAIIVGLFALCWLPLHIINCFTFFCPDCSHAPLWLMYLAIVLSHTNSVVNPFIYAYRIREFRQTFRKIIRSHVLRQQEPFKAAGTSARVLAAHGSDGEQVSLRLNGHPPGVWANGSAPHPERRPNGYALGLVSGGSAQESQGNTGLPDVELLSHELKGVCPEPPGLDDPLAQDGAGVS
Assay Summary: cAMP assay, Assay 2 (Eu-cAMP tracer / ULight-anti-cAMP)
Type: cell-based
Particulars: HEK293; 100 nM; Assay 2; read-out: A2a cAMP % inh @ 100 nM
Give a bare numeral; the unit % is implied.

Solved entries (count: 4):
Nc1cnc(-c2ccc3[nH]ncc3c2)c(-c2ccccc2)n1; 100
N#Cc1nc(-c2ccc3[nH]ncc3c2)c(-c2ccccc2)nc1N; 60
Nc1nc(-c2ccccc2)c(-c2ccc3ncccc3c2)nc1O; 80
NC(=O)c1nc(-c2ccc3ncccc3c2)c(-c2ccccc2)nc1N; 96

Q: Please give the measured inhibition at 0.1 µM for this compound: Nc1cnc(-c2ccc3ncsc3c2)c(-c2ccccc2)n1
Result: 77

* * *

Tested System: adenosine A2A receptor (Homo sapiens (Human), UniProt P29274)
Assay Summary: A2A adenosine receptor radioligand binding competition assay (filter plates)
Particulars: 3000 nM
Value Type: A2A radioligand binding competition assay % residual binding @ 3000 nM

Solved entries (count: 2):
Nc1cnc(-c2cc(Cl)c3ncccc3c2)c(-c2ccccc2)n1 [Compound No. 1.17]; 8/ND/ND/ND %
Nc1cnc(-c2ccc3ncccc3c2)c(-n2cccn2)n1 [Compound No. 1.22]; 39/ND/ND/ND %

Now consider a different molecule.
Q: Please give the measured A2A radioligand binding competition assay % residual binding @ 3000 nM for this molecule: Nc1cnc(-c2ccc3nccnc3c2)c(-c2ccccc2)n1 [Compound No. 1.16]
Result: 80/ND/ND/ND %

* * *

Tested System: HEK-293 cells expressing human recombinant adenosine A2A receptor (Homo sapiens (Human))
Assay Summary: cAMP assay, Assay 2 (Eu-cAMP tracer / ULight-anti-cAMP)
Format: cell-based
Particulars: HEK293; 100 nM; Assay 2; read-out: A2a cAMP % inh @ 100 nM
Value Type: inhibition at 0.1 µM (%)
Give a bare numeral; the unit % is implied.

Cc1ccn(-c2nc(N)cnc2-c2ccc3ncccc3c2)n1; 51
Cc1ccn(-c2nc(N)cnc2-c2ccc3[nH]ncc3c2)n1; 16
Nc1cnc(-c2ccc3ncoc3c2)c(-c2ccccc2)n1; 22

Q: Please give the measured inhibition at 0.1 µM for this molecule: N#Cc1nc(-c2cc(Cl)c3[nH]cnc3c2)c(-c2ccccc2)nc1N
Result: 44

The reported numbers originate from patent US11028058B2.
